- EXPERIMENTAL TARGET: T1, human IL2v G4S avi his (P1AG0879) (human)
- T1 chain: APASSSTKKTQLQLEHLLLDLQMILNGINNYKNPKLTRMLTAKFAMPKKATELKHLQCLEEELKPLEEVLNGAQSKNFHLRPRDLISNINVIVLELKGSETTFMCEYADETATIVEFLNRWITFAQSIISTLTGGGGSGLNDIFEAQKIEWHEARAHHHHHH
- EXPERIMENT DESCRIPTION: SPR, 25C
Listed here: items and their measured pKd.
Just so you know, pKd here is -log10 of the concentration in molar units; reply with that number alone.

Consider the following illustrative entries.
BINDER | TEST RESULT
P1AH2052 MT204_VL1b-combo VH2 & VH6 IgG PG LALA (antibody, V domains shown) VH: EVQLVESGGGLVQPGGSLRLSCAASGFTFSSYTLAWVRQAPGKGLEWVAAIDSSSYTYSPDTVKGRFTISRDNSKNTLYLQMNSLRAEDTAVYYCARDSNWDALDYWGQGTTVTVSS VL: DIQMTQSPSSLSASVGDRVTITCRASQGVGTNVGWYQQKPGKAPKLLIYSASFLYSGVPSRFSGSGSGTDFTLTISSLQPEDFATYYCQQYYTYPYTFGGGTKVEIKR | 9.00
P1AH2050 MT204_VL1-combo VH2 & VH6 IgG PG LALA (antibody, V domains shown) VH: EVQLVESGGGLVQPGGSLRLSCAASGFTFSSYTLAWVRQAPGKGLEWVAAIDSSSYTYSPDTVKGRFTISRDNSKNTLYLQMNSLRAEDTAVYYCARDSNWDALDYWGQGTTVTVSS VL: DIQMTQSPSSLSASVGDRVTITCRASQGVGTNVGWYQQKPGKAPKALIYSASFRYSGVPSRFSGSGSGTDFTLTISSLQPEDFATYYCQQYYTYPYTFGGGTKVEIKR | 9.37
P1AH2051 MT204_VL1a-combo VH2 & VH6 IgG PG LALA (antibody, V domains shown) VH: EVQLVESGGGLVQPGGSLRLSCAASGFTFSSYTLAWVRQAPGKGLEWVAAIDSSSYTYSPDTVKGRFTISRDNSKNTLYLQMNSLRAEDTAVYYCARDSNWDALDYWGQGTTVTVSS VL: DIQMTQSPSSLSASVGDRVTITCRASQGVGTNVGWYQQKPGKAPKALIYSASFLYSGVPSRFSGSGSGTDFTLTISSLQPEDFATYYCQQYYTYPYTFGGGTKVEIKR | 10.00

Turning to the following binder.
May I ask what pKd has been recorded for P1AF7506 OA MT204 IgG PG LALA (antibody, V domains shown) VH: EVQLVESGGGLVQPGGSLRLSCAASGFTFSSYTLAWVRQAPGKGLEWVAAIDSSSYTYSPDTVRGRFTISRDNAKNSLYLQMNSLRAEDTAVYYCARDSNWDALDYWGQGTTVTVSS VL: DIQMTQSPSSLSASVGDRVTITCKASQNVGTNVGWYQQKPGKAPKALIYSASFRYSGVPSRFSGSGSGTDFTLTISSLQPEDFATYYCQQYYTYPYTFGGGTKVEIKR ?
9.57
